Attribute: pKb
molecular target: Substance-K receptor (Cavia porcellus) (UniProt Q64077); assay: Antagonist activity at NK2 receptor in Dunkin-Hartley guinea pig colon smooth muscle assessed as inhibition of [beta-Ala8]NKA(4-10)-induced tissue contraction in presence of NK1 receptor antagonist SR-140333; assay type: functional, tissue-based
Sequence (Q64077 whole entry): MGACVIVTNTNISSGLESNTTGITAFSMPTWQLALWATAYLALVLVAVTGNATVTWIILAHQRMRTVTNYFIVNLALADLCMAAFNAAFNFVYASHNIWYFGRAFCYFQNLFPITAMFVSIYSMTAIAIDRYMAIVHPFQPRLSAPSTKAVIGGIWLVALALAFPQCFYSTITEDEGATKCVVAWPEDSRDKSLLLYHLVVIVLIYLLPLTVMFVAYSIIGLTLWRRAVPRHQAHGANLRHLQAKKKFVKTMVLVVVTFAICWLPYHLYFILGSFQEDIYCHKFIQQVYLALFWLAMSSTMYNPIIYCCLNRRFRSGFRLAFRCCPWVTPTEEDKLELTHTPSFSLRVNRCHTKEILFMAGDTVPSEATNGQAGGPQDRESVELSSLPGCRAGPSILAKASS
A bare number is all that is needed in reply.

As a guide, the following entries are already answered.
Cc1ccc2cc(C(=O)NC3(C(=O)N[C@@H](CCCN4CCN(c5ccccn5)CC4)Cc4ccccc4)CCCC3)sc2c1	7.8
Cc1ccc2cc(C(=O)NC3(C(=O)N[C@@H](CCCN4CCN(C=O)CC4)Cc4ccccc4)CCCC3)sc2c1	7.8

Problem: Return reported pKb; argument: Cc1ccc2cc(C(=O)NC3(C(=O)N[C@@H](CCCN4CCN(S(=O)(=O)N(C)C)CC4)Cc4ccccc4)CCCC3)sc2c1
Result: 7.9

* * *

// endpoint pKi / system Substance-K receptor (Homo sapiens, UniProt P21452)
By convention, pKi is the negative base-10 log of a molar concentration.

Cc1ccc2cc(C(=O)NC3(C(=O)N[C@@H](CCCN4CCC(C(=O)N5CCOCC5)CC4)Cc4ccccc4)CCCC3)sc2c1	9.10

Problem: Param readout= pKi; system= Substance-K receptor (Homo sapiens, UniProt P21452); entry= CCS(=O)(=O)N1CCN(CCC[C@@H](Cc2ccccc2)NC(=O)C2(NC(=O)c3cc4ccc(C)cc4s3)CCCC2)CC1 ; returns value.
Result: 9.20

Problem: Lab request: please report pKi under test system Substance-K receptor (Homo sapiens, UniProt P21452) for Cc1ccc2cc(C(=O)NC3(C(=O)N[C@@H](COCC4CCN(CC5CCOCC5)CC4)Cc4ccccc4)CCCC3)sc2c1
Result: 9.20

Problem: Give Substance-K receptor (Homo sapiens, UniProt P21452) pKi for Cc1ccc(-c2ccc(C(=O)NC3(C(=O)N[C@@H](CCCN4CCN(CC5CCOCC5)CC4)Cc4ccccc4)CCCC3)cc2)cc1
Result: 9.20

Problem: Any idea what pKi came out for Cc1ccc2cc(C(=O)NC3(C(=O)N[C@@H](CCCN4CCN(Cc5cccnc5)CC4)Cc4ccccc4)CCCC3)sc2c1 on Substance-K receptor (Homo sapiens, UniProt P21452)?
Result: 9.50

Problem: API: value(readout= pKi, system= Substance-K receptor (Homo sapiens, UniProt P21452), query= Cc1ccc2cc(C(=O)NC3(C(=O)N[C@@H](CCC(=O)N4CCC(N5CCOCC5)CC4)Cc4ccccc4)CCCC3)sc2c1 )
Result: 8.70

Problem: What is its pKi for Substance-K receptor (Homo sapiens, UniProt P21452)? Entry: Cc1ccc2cc(C(=O)NC3(C(=O)N[C@H](CCCN4CCN(CC5CCOCC5)CC4)Cc4ccccc4)CCCC3)sc2c1
Result: 9.20

Problem: What is its pKi for Substance-K receptor (Homo sapiens, UniProt P21452)? Entry: Cc1ccc2cc(C(=O)NC3(C(=O)N[C@@H](CCCN4CCN(S(=O)(=O)N(C)C)CC4)Cc4ccccc4)CCCC3)sc2c1
Result: 9.50

Problem: What measured pKi is associated with Cc1ccc2cc(C(=O)NC3(C(=O)N[C@@H](CCCN4CCN(Cc5ccc(F)cc5)CC4)Cc4ccccc4)CCCC3)sc2c1 on Substance-K receptor (Homo sapiens, UniProt P21452)?
Result: 9.90

Problem: Field: pKi (Substance-K receptor (Homo sapiens, UniProt P21452)). Entry: O=C(NC1(C(=O)N[C@@H](CCCN2CCN(CC3CCOCC3)CC2)Cc2ccccc2)CCCC1)c1cc2ccccc2s1
Result: 9.60
